Test system: MAPK9 (human)
Assay explanation: KINOMEscan competition binding
Condition info: compound 10.0 µM
Listed next: entries and their corresponding kinase still bound, per cent of control.
Quick note: give the figure in %, leave out the unit.

[[record]]
compound_structure = "COc1cc2ncnc(-n3nc(-c4ccccn4)nc3N)c2cc1OC"
scale_unit = "%"
readout_number = 1.5

[[record]]
compound_structure = "C=CC(=O)Nc1ccc(CN(C(=O)Nc2c(Cl)c(OC)cc(OC)c2Cl)c2cc(Nc3ccc(N4CCN(C)CC4)cc3)ncn2)cc1"
scale_unit = "%"
readout_number = 100

[[record]]
compound_structure = "CN(C)C/C=C/C(=O)Nc1ccc(C(=O)Nc2cccc(Nc3nccc(-c4cccnc4)n3)c2)cc1"
scale_unit = "%"
readout_number = 2.5

[[record]]
compound_structure = "CCN1CCN(C(=O)Cc2ccc(Nc3ncc(F)c(Nc4ccc(C(=O)Nc5ccccc5Cl)cc4)n3)cc2)CC1"
scale_unit = "%"
readout_number = 0.75

[[record]]
compound_structure = "Cc1n[nH]c2ccc(-c3cncc(OC[C@@H](N)Cc4c[nH]c5ccccc45)c3)cc12"
scale_unit = "%"
readout_number = 100


Now, please, on to the next compound.
Tell me the measured kinase still bound, per cent of control of O=C1NC(=O)/C(=C/c2ccc3nccc(-c4ccncc4)c3c2)S1 , please.
39
